Source listed as patent US20240360157A1.

target-or-test-system: human JAK2 catalytic kinase (JH1) domain (Homo sapiens (Human))
Sequence (O60674 849-1124): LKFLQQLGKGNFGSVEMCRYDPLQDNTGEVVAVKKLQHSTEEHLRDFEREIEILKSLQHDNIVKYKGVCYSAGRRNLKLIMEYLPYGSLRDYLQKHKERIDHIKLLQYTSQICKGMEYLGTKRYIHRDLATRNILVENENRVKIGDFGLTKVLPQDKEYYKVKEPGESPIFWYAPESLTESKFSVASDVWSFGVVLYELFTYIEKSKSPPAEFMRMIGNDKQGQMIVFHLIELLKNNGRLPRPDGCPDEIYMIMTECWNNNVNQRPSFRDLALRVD
test-protocol: ADP-Glo Kinase Assay, recombinant JAK2 catalytic kinase (JH1) domain
Type: biochemical
condition: recombinant JH1 domain 0.2 nM, 15 μM ATP, JAK3-974 peptide, mean, read-out: JAK2 biochem IC50 (nM) Mean
Listing: IC50 of selected compounds

compound | units | IC50
O=C([C@@H]1C[C@H]1F)N1C2CCC1CN(c1ccnn3cc(-c4ccnc(OC(F)F)c4)cc13)C2 | nM | 57
COc1cc(-c2cc3c(N4CC5CCC(C4)N5C(=O)[C@@H]4C[C@H]4F)ccnn3c2)ccn1 | nM | 46
Cc1cc(-c2cc3c(N4CC5CCC(C4)N5C(=O)C4CC4)ncnn3c2)on1 | nM | 10000
O=C([C@@H]1CC1(F)F)N1C2CCC1CN(c1ccnn3cc(-c4cnn(C(F)(F)F)c4)cc13)C2 | nM | 29
O=C([C@@H]1C[C@H]1F)N1C2CCC1CN(c1ccnc3[nH]c(C4(F)CC4)nc13)C2 | nM | 2600
N#Cc1ccc(-c2cc3c(N4CC5CCC(C4)N5C(=O)[C@@H]4C[C@H]4F)ncnc3[nH]2)cn1 | nM | 418
O=C([C@@H]1C[C@H]1F)N1C2CCC1CN(c1ccnn3cc(-c4cnn(C(F)F)c4)cc13)C2 | nM | 36
O=C([C@@H]1C[C@H]1F)N1C2CCC1CN(c1ccnn3cc([C@H]4CC4(F)F)cc13)C2 (single isomer, unassigned) | nM | 8220
O=C([C@@H]1C[C@H]1F)N1C2CCC1CN(c1ncnn3cc(-c4ccnnc4)cc13)C2 | nM | 3060
COc1cc(-n2cc3nccc(N4CC5CCC(C4)N5C(=O)[C@@H]4C[C@H]4F)c3n2)ccn1 | nM | 88
O=C([C@@H]1CC1(F)F)N1C2CCC1CN(c1ncnn3cc(-c4cnn(C(F)F)c4)cc13)C2 | nM | 714
N#Cc1cc(-c2nc3c(N4CC5CCC(C4)N5C(=O)[C@@H]4C[C@H]4F)ccnc3[nH]2)ccn1 | nM | 49
